- assayed-target: NAMPT (Homo sapiens, UniProt P43490)
- Construct: His tag; host or cells: E. coli
- Sequence (P43490 whole entry): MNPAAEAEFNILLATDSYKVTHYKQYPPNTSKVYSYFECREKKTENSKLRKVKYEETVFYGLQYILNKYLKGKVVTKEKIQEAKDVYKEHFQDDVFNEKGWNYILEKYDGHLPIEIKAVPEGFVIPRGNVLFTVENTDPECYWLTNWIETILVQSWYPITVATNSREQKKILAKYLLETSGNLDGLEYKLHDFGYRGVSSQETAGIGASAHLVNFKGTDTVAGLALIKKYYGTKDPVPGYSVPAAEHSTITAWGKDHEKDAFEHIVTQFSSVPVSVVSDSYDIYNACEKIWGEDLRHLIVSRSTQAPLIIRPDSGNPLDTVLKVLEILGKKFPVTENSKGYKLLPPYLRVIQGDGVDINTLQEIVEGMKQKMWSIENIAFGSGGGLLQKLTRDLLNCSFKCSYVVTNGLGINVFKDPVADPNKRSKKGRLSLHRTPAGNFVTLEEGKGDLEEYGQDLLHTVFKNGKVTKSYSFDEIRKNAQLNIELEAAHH
- protocol-description: Biochemical inhibition assay: NAMPT enzymatic reaction, NMN quantified by mass spectrometry
- protocol-conditions: NAMPT enzymatic assay; read-out: Biochem IC50
Friendly reminder: IC50 below 20 nM is T, at or above is F.

>  <structure>
O=C(NCc1ccc(S(=O)(=O)c2ccc(-n3cccn3)nc2)cc1)c1ccc2nccn2c1

>  <group>
T

$$$$
>  <structure>
CN(C)Cc1ccc(S(=O)(=O)c2ccc(CNC(=O)c3cnc4nccn4c3)cc2)cc1

>  <group>
T

$$$$
>  <structure>
COc1ccc(S(=O)(=O)c2ccc(CNC(=O)c3cc4ccncc4s3)cc2)nc1

>  <group>
T

$$$$
>  <structure>
CN(C)CCc1cccc(S(=O)(=O)c2ccc(CNC(=O)c3cnc4nccn4c3)cc2)c1

>  <group>
T

$$$$
>  <structure>
O=C(NCc1ccc(S(=O)(=O)c2ccc(C(F)(F)F)cc2C(F)(F)F)cc1)c1cnc2[nH]ncc2c1

>  <group>
F

$$$$
>  <structure>
Cn1ncc2ccc(S(=O)(=O)c3ccc(CNC(=O)c4cc5cnccc5[nH]4)cc3)cc21

>  <group>
T

$$$$
>  <structure>
O=C(NCc1ccc(S(=O)(=O)c2cncc(F)c2)cc1)c1cc2ccncc2s1

>  <group>
T

$$$$
>  <structure>
COc1ccc2cc(S(=O)(=O)c3ccc(CNC(=O)c4cc5cnccc5[nH]4)cc3)ccc2c1

>  <group>
T

$$$$
>  <structure>
COc1ccc(C(C)(C)C)cc1S(=O)(=O)c1ccc(CNC(=O)c2cc3ccncc3o2)cc1

>  <group>
F

$$$$
>  <structure>
O=C(NCc1ccc(S(=O)(=O)c2cccc(Oc3ccc(F)cc3)c2)cc1)c1ccc2nccn2c1

>  <group>
T

$$$$
